# Species on record: Rattus norvegicus
# assay.explanation: Open TG-GATES - Regimen: Daily Repeat
# Assay type: toxicity, organism-based, Sprague-Dawley
# Set-up: regimen Daily Repeat, gender Male, age 6 weeks
# test.context: in vivo, po, 0 mg/kg, […], tissue Blood, route gavage, dose level Control, time 7 day
measure: MCV (fL)
API: value field is a number in fL; no unit string.

Previously resolved entries follow.
line.notation	measure	val
NC(N)=Nc1nc(CSCCC(N)=NS(N)(=O)=O)cs1	MCV	62
COC1=CC(=O)C[C@@H](C)[C@]12Oc1c(Cl)c(OC)cc(OC)c1C2=O	MCV	64.8

Please indicate MCV recorded for CN(C)CCCN1c2ccccc2CCc2ccccc21 63.5

Reference source: ChEMBL document CHEMBL3885861
